The reported measurements were obtained from PubChem BioAssay (NCI).

growth overview
Tested on: HOP-92 NSCLC
Experiment: NCI-60 one-dose screen, 48 h (100 = growth as untreated, 0 = no growth, -100 = all killed)
Conditions: 10 µM unless noted
About 83,000 compounds went through this panel and 20% of them were active in at least one assay; those are over-represented in the sample as a whole.

>  <item.smiles>
COc1ccc2cc(-c3ccnc4c(N=Nc5ccc(Cl)cc5)c(N)nn34)ccc2c1

>  <unit.descriptor>
%

>  <growth>
98.7

$$$$
>  <item.smiles>
O=C(C1=Cc2cc3ccccc3n2Cc2cnnn21)c1ccc(O)cc1

>  <unit.descriptor>
%

>  <growth>
84.4

$$$$
>  <item.smiles>
NS(=O)(=O)c1ccc(NC(=O)/C(=C\c2ccc(Cl)cc2Cl)NC(=O)c2ccccc2)cc1

>  <unit.descriptor>
%

>  <growth>
87

$$$$
>  <item.smiles>
O=C1/C(=C2\SC(=S)N(C3CC3)C2=O)SC(=S)N1C1CC1

>  <unit.descriptor>
%

>  <growth>
98.9

$$$$
>  <item.smiles>
Cc1ccc2c(-n3nc(C#N)c(C#N)c3N)cc(=O)[nH]c2c1

>  <unit.descriptor>
%

>  <growth>
84.3

$$$$

----------
System: T-47D breast
Assay: NCI-60 one-dose screen, 48 h
Settings: 10 µM unless noted
This is part of a sample that, as a whole, favours compounds with a hit. Of some 83,000 tested, about 20% had one in any assay. Activity calls are given as the source filed them. The calls were made as follows: active = growth percent below 10; inactive = the rest.
Labels: active, inactive

>  <compound>
CCN1C(=O)N(CC)C2C1NN=c1s/c(=C\c3ccc[nH]3)c(=O)n12 (centres undefined)

>  <discrete.label>
inactive

$$$$
>  <compound>
CN1CCN(C(=O)C(C)(C)c2ccc(C(=O)Nc3cn4cc(-c5ccncc5)ccc4n3)cc2)CC1

>  <discrete.label>
active

$$$$
>  <compound>
CCC1S/C(=N\N=C(\C)c2cc3cc(Cl)ccc3o2)N(c2ccccc2)C1=O (centres undefined)

>  <discrete.label>
inactive

$$$$
>  <compound>
Cc1ccc(-c2nc(-c3cn(C)c4ncccc34)cs2)cc1

>  <discrete.label>
active

$$$$
>  <compound>
Cc1nc2c(c(=O)[nH]1)C(c1ccccc1)c1ccc3ccccc3c1O2 (centres undefined)

>  <discrete.label>
inactive

$$$$
>  <compound>
O=C(C1CCCCC1)[C@@H]1[C@]2(C(=O)NC3CCCCC32)[C@@H]2CCCN2[C@@]12C(=O)NC1CCC(Cl)CC12 (some centres undefined)

>  <discrete.label>
active

$$$$
>  <compound>
C=C1CC[C@@H]2[C@](C)(COC(C)=O)[C@H](OC(C)=O)CC[C@@]2(C)[C@@H]1CC(Nc1ccc(S(=O)(=O)NC(C)=O)cc1)C1=CCOC1=O (some centres undefined)

>  <discrete.label>
active

$$$$
>  <compound>
O=C(CN1CCCCCC1)Nc1nc2ccc(NCc3ccc(Cl)cc3)cc2s1

>  <discrete.label>
inactive

$$$$
>  <compound>
CN1CCN(CC(=O)Nc2ccc3ncnc(Nc4ccc(Oc5cccc(C(F)(F)F)c5)c(Cl)c4)c3c2)CC1

>  <discrete.label>
inactive

$$$$

----------
System: SR leukemia
Assay: NCI-60 one-dose screen, 48 h
Conditions: 10 µM unless noted
About 83,000 compounds went through this panel and 20% of them were active in at least one assay; those are over-represented in the sample as a whole. Active and inactive are the calls of the source. The calls were made as follows: active = growth percent below 10; inactive = the rest.
Possible outcomes: active, inactive

>  <compound>
CCN1C(=O)N(CC)C2C1NC(=S)N2/N=C/c1ccc(C(F)(F)F)cc1 (stereo unspecified)

>  <discrete.label>
inactive

$$$$
>  <compound>
Oc1ccc(/C=C/c2ccc(O)cc2)cc1

>  <discrete.label>
inactive

$$$$
>  <compound>
CCNc1ccc(-c2nc3ccccc3n3cccc23)cc1

>  <discrete.label>
inactive

$$$$
>  <compound>
S=C(c1ccc2c(c1)OCO2)N1CCN(c2cccc(Cl)c2)CC1

>  <discrete.label>
inactive

$$$$
>  <compound>
C#CCn1cnc2cnc(Nc3cccc(NC(=O)C=C)c3)nc21

>  <discrete.label>
active

$$$$
>  <compound>
Cc1ccc(/C=C/C(=O)c2cccc(OCCCOc3cccc(C(=O)/C=C/c4ccc(C)cc4)c3)c2)cc1

>  <discrete.label>
inactive

$$$$
>  <compound>
O=C(O)/C=C/C(=O)Nc1cccc(Cn2nnc3cc(Cl)c(Cl)cc32)c1

>  <discrete.label>
inactive

$$$$
>  <compound>
CN1CCN(c2ccc3nc4c(nc3c2C(F)(F)F)C(=O)c2ncccc2C4=O)CC1

>  <discrete.label>
active

$$$$
>  <compound>
C=C1CC[C@@H]2C(C)(C)[C@@H](O)CC[C@@]2(C)[C@@H]1COc1ccc2ccc(=O)oc2c1

>  <discrete.label>
inactive

$$$$
>  <compound>
Cc1ccc(Cl)cc1NC(=O)c1sc2nc3c(cc2c1N)C(=O)CCC3

>  <discrete.label>
inactive

$$$$
>  <compound>
O=C1Nc2ccccc2/C1=C\c1c[nH]c2ccc(Br)cc12

>  <discrete.label>
inactive

$$$$
>  <compound>
N#C/C(=C\c1ccc([N+](=O)[O-])cc1)n1nnc2cc(F)c(F)cc21

>  <discrete.label>
active

$$$$
>  <compound>
Cc1ccc(S(=O)(=O)OCCCOS(=O)(=O)c2ccc(C)cc2)cc1

>  <discrete.label>
inactive

$$$$
>  <compound>
CCOc1c(OC)cc2c(c1O)C(=O)N[C@@H]1[C@@H](O)[C@@H](O)[C@H](O)C[C@@H]21

>  <discrete.label>
inactive

$$$$
>  <compound>
Cc1ccc(NC(=O)Cn2c(Br)nc3c2c(=O)n(C)c(=O)n3C)cc1

>  <discrete.label>
inactive

$$$$
>  <compound>
O=c1c2ccccc2c(=O)c2c1sc1c(=O)c3ccc(O)cc3c(=O)c12

>  <discrete.label>
active

$$$$
>  <compound>
O=C(/C=C/C12c3ccccc3C(c3ccccc31)C1C(=O)NC(=O)C12)c1ccc(Br)cc1 (stereo unspecified)

>  <discrete.label>
inactive

$$$$
>  <compound>
CCS/C(Nc1ccccc1)=C(\C#N)C(=O)Nc1ccc(OC)cc1

>  <discrete.label>
active

$$$$
>  <compound>
COc1ccc(C2CC(c3cc(OC)c(OC)c(OC)c3)=NO2)cc1OCCCCOc1cc2c(cc1OC)C(=O)N1CCC[C@H]1C=N2 (stereo partly specified)

>  <discrete.label>
active

$$$$
>  <compound>
CCCCCN(CCCCC)CC(O)c1cc(C)c2ccc3cc(C(C)C)ccc3c2c1 (stereo unspecified)

>  <discrete.label>
active

$$$$
>  <compound>
O=C(Nc1ncccc1OCc1ccccc1)NC1CCCCCC1

>  <discrete.label>
inactive

$$$$
